- Target Entity: T1, human soluble urokinase plasminogen activator receptor (suPAR) (human, UniProt Q03405 23-303, limits assumed)
- T1 construct: Target antigen of the scFv off-rate screen; also called hsuPAR; human suPAR
- T1 sequence (Q03405 23-303 limits assumed): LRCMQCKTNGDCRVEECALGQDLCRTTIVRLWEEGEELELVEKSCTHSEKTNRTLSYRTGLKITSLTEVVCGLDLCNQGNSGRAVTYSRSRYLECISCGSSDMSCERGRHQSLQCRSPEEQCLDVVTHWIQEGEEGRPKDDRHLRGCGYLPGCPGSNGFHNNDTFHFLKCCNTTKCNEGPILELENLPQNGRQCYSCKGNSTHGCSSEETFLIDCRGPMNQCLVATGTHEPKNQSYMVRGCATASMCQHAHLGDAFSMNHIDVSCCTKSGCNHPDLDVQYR
- Test Method Notes: BLI (Octet) off-rate screen of scFv clones
Property Measured: koff (s⁻¹)
Write it as a number; the unit s⁻¹ goes unstated.

Some solved cases for reference:
Binder | Property Measured | Observed Result
suPAR_DB06_D08 (scFv, V domains shown) VH: QVQLVQSGAEVKKPGASVKVSCKASGYTFTNYYMHWVRQAPGQGLEWMGWIDPEGGNTSYDQKFQGRVTMTRDTSTSTVYMELSSLRSEDTAVYYCARGYDVDWFVYWGQGTLVTVSS VL: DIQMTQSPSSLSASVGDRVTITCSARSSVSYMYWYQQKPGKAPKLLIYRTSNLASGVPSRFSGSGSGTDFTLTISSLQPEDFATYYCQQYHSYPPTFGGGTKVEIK | koff | 0.00166
suPAR_DB06_D12 (scFv, V domains shown) VH: QVQLVQSGAEVKKPGASVKVSCKASGGTFSSYYMHWVRQAPGQGLEWMGWIDPENGNTIYAQKFQGRVTMTRDTSTSTVYMELSSLRSEDTAVYYCARGYDVDWFVYWGQGTLVTVSS VL: DIQMTQSPSSLSASVGDRVTITCSARQSVSYMYWYQQKPGKAPKLLIYRTSSLASGVPSRFSGSGSGTDFTLTISSLQPEDFATYYCQQYHSYPPTFGGGTKVEIK | koff | 0.00515
suPAR_DB06_D07 (scFv, V domains shown) VH: QVQLVQSGAEVKKPGASVKVSCKASGYTFTNYYMHWVRQAPGQGLEWMGWIDHEGGNTIYAQKFQGRVTMTRDTSTSTVYMELSSLRSEDTAVYYCARGYDVDWFVYWGQGTLVTVSS VL: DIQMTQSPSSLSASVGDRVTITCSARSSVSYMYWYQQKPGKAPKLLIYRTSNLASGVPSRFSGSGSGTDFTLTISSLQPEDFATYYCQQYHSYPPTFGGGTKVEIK | koff | 0.00244
suPAR_DB06_C11 (scFv, V domains shown) VH: QVQLVQSGAEVKKPGASVKVSCKASGYTFTNYYMHWVRQAPGQGLEWMGWIDHENGNTIYDQKFQGRVTMTRDTSTSTVYMELSSLRSEDTAVYYCARGYDVDWFVYWGQGTLVTVSS VL: DIQMTQSPSSLSASVGDRVTITCSARQSVSYMYWYQQKPGKAPKLLIYRTSNLASGVPSRFSGSGSGTDFTLTISSLQPEDFATYYCQQYHSYPPTFGGGTKVEIK | koff | 0.00201

Data point: suPAR_DB06_C12 (scFv, V domains shown) VH: QVQLVQSGAEVKKPGASVKVSCKASGYSFTANYIHWVRQAPGQGLEWMGWIDHENGNTIYDQKFQGRVTMTRDTSTSTVYMELSSLRSEDTAVYYCANGYDVDWFVYWGQGTLVTVSS VL: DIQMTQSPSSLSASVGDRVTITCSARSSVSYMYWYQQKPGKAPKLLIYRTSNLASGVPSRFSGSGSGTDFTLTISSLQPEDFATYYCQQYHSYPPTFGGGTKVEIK ; koff = 0.00484

Attribution: patent US20250215104A1
